In this section we review reported FACS reading values for a set of binders.
subjectOfTest: T1, Claudin 18.2 (CLDN18.2), expressed on CHOS-CLDN 18.2 / HEK293-CLDN 18.2 / HCC827-CLDN 18.2 cells (human, UniProt P56856-2 1-261)
T1 construct: whole, on cells; The species is not repeated for the CHOS-CLDN 18.2 cells; also called claudin-18A2
testSummary: FACS, CHOS-CLDN18.2 cells, 20 µg/ml
// response body must contain only the number

>>> measurednumber("QP14581454 (antibody, human IgG1, kappa, V domains shown, Humanized from QP201202) VH: QVQLVQSGAEVKKPGASVKVSCKASGYTFTNYFVHWVKQAPGQGLEWIGYINPYNDDTKYNEKFKGKATLTRDTSTSTVYMELSSLRSEDTAVYYCLSLRFFAYWGQGTLVTVSS VL: DIVMTQSPDSLAVSLGERATISCKSSQSLLNSGNQKNYLTWYQQKPGQAPKLLIYWASTRESGVPDRFSGSGSGTDFTLTISSVQAEDVAVYFCQNDYSYPLTFGGGTKVEIKR")
58600

As a next step, examine the binder that follows.
IN: Which FACS reading reading was recorded for the binder QP201202 (antibody, human IgG1, V domains shown, Chimeric; also called 44C6) VH: EVQLQQSGPELVKPGASVKMSCKASGYTFTNYFVHWVKQKPGQGLEWIGYINPYNDDTKYNEKFKGKATLTSDKSSSTAYMDLSSLTSEDSAVYYCLSLRFFAYWGQGTLVTVSA VL: DIVMTQSPSSLTVTAGEKVTMSCKSSQSLLNSGNQKNYLTWYQQKPGQAPKLLIYWASTRESGVPDRFIGSGSGTDFTLTISHVQAEDLAVYFCQNDYSYPLTFGAGTNLELK ?
OUT: 113000
